Measured melting point, listed per entry for reference.

Solved cases below.
O=C(Nc1ccc(Cl)c(Cl)c1)OC1CN2CCC1CC2 (stereo not given); 181 to 184 °C
CCc1cc(-c2ccc(F)cc2)c(O)cc1OCCCCCC(c1ccc(OCC(=O)O)cc1)c1nnn[nH]1 (stereo not given); 102 to 104 °C
CSc1nc(O)c(C#N)n1C(C)C; 196 to 198 °C

Data request: Tell me melting point reported for COc1ccc2nc(COc3ccc(CC(Nc4ccccc4C(=O)c4ccccc4)C(=O)O)cc3)n(C)c2c1 (stereo not given)
Data returned: 140 to 146 °C

Data request: Tell me melting point reported for Cc1ccc(-c2cccc(/C=C/C(=O)O)c2)cc1
Data returned: 186 to 187 °C

Data request: Tell me melting point reported for Cc1c(-c2ccccc2)c(N2CC[C@H](N(C)C)C2)c2oc(N3CC(CO)C3)nc2c1C#N
Data returned: 48 to 51 °C

Data request: Tell me melting point reported for NC(C(=O)O)c1ccsc1 (stereo not given)
Data returned: 283 to 285 °C

Data request: Tell me melting point reported for COc1cc2nc(N)nc(-c3ccc(O)c(C(=O)O)c3)c2cc1OC
Data returned: > 300 °C

Data request: Tell me melting point reported for CC(C)(Oc1ccc(Cl)cc1)C(O)(Cn1cncn1)c1ccc(Cl)cc1 (stereo not given)
Data returned: 135 °C

Data request: Tell me melting point reported for Nc1cccc(-c2ccc(OC3CN(Cc4ccccn4)C3)c3ccccc23)n1
Data returned: 97 to 120 °C
